Test system: Tobacco mosaic virus
Experiment: In vivo antiviral activity against Tobacco mosaic virus (TMV) infected tobacco leaves assessed as curative effect at 100 ug/ml treated after viral inoculation measured at 2-3 days after viral challenge
Format: functional
Cut-off 30% on Activity: below means Satisfied, at or above means Not satisfied.

>  <compound>
Cc1ccc(N(C(=O)c2snnc2C)C(C(=O)NC2CCCCC2)c2ccccc2C)cc1F (configuration not stated)

>  <target.entity>
Tobacco mosaic virus

>  <classification>
Satisfied

$$$$
>  <compound>
Cc1ccc(N(C(=O)c2snnc2C)C(C(=O)NC2CCCCC2)c2cccc([N+](=O)[O-])c2)cc1F (configuration not stated)

>  <target.entity>
Tobacco mosaic virus

>  <classification>
Not satisfied

$$$$
>  <compound>
Cc1ccc(N(C(=O)c2snnc2C)C(C(=O)NC2CCCCC2)c2cccc(C(F)(F)F)c2)cc1F (configuration not stated)

>  <target.entity>
Tobacco mosaic virus

>  <classification>
Satisfied

$$$$
>  <compound>
Cc1ccc(N(C(=O)c2snnc2C)C(C(=O)NC2CCCCC2)c2ccc(O)cc2)cc1F (configuration not stated)

>  <target.entity>
Tobacco mosaic virus

>  <classification>
Not satisfied

$$$$
>  <compound>
NC(=O)c1ncn([C@@H]2O[C@H](CO)[C@@H](O)[C@H]2O)n1 [RIBAVIRIN]

>  <target.entity>
Tobacco mosaic virus

>  <classification>
Satisfied

$$$$

Prompt: Bench note: check whether Cc1ccc(NC(=O)c2snnc2C)cc1Cl [TIADINIL] shows Activity below 30%
Response: Satisfied

Prompt: Confirm or reject: Activity of Cc1ccc(N(C(=O)c2snnc2C)C(C(=O)NC2CCCCC2)c2ccc([N+](=O)[O-])cc2)cc1F (configuration not stated) lies strictly below 30%
Response: Not satisfied

---

Reported Activity is given for each of the following molecules.
System: Alternaria solani
Assay: Fungicidal activity against Alternaria solani at 50 ug/ml by growth inhibition method
Assay type: functional
Parameters: scale not given: the % may be the effect or the level left
Numbers only; they are read as %.

>  <molecule>
Cc1ccc(N(C(=O)c2snnc2C)C(C(=O)NC2CCCCC2)c2ccc(Cl)cc2)cc1Cl (stereo unspecified)

>  <target.entity>
Alternaria solani

>  <Activity [%]>
38

$$$$

Prompt: Specify measured Activity for Cc1ccc(N(C(=O)c2snnc2C)C(C(=O)NC2CCCCC2)c2cccc(F)c2)cc1Cl (stereo unspecified) .
Response: 21

Prompt: // Input: Cc1ccc(C(C(=O)NC2CCCCC2)N(C(=O)c2snnc2C)c2ccc(C)c(Cl)c2)cc1 (stereo unspecified) . Output its Activity only.
Response: 42

Prompt: For the molecule Cc1ccc(N(C(=O)c2snnc2C)C(C(=O)NC2CCCCC2)c2ccccc2F)cc1Cl (stereo unspecified) , give its reported Activity.
Response: 38

Prompt: Identify Activity associated with the molecule Cc1ccc(N(C(=O)c2snnc2C)C(C(=O)NC2CCCCC2)c2ccc(Cl)cc2)cc1F (stereo unspecified)
Response: 38

Prompt: Answer with reported Activity of Cc1ccc(N(C(=O)c2snnc2C)C(C(=O)NC2CCCCC2)c2ccc([N+](=O)[O-])cc2)cc1Cl (stereo unspecified)
Response: 35

Prompt: Input Cc1ccc(N(C(=O)c2snnc2C)C(C(=O)NC2CCCCC2)c2ccccc2Cl)cc1Cl (stereo unspecified) , output reported Activity.
Response: 26

Prompt: Using known records, supply Activity for Cc1ccc(N(C(=O)c2snnc2C)C(C(=O)NC2CCCCC2)c2ccccc2C)cc1F (stereo unspecified)
Response: 44

Prompt: Please look at this molecule and report its Activity: Cc1cccc(C(C(=O)NC2CCCCC2)N(C(=O)c2snnc2C)c2ccc(C)c(Cl)c2)c1 (stereo unspecified)
Response: 37

Prompt: In one line, give reported Activity of the entry Cc1ccc(N(C(=O)c2snnc2C)C(C(=O)NC2CCCCC2)c2ccc(C(F)(F)F)cc2)cc1F (stereo unspecified) .
Response: 0

Prompt: Identify Activity associated with the molecule Cc1ccc(N(C(=O)c2snnc2C)C(C(=O)NC2CCCCC2)c2cccc(Cl)c2)cc1Cl (stereo unspecified)
Response: 21

Prompt: // Input: Cc1ccc(N(C(=O)c2snnc2C)C(C(=O)NC2CCCCC2)c2ccccc2C(F)(F)F)cc1F (stereo unspecified) . Output its Activity only.
Response: 44

---

Tested on: Alternaria solani
Assay: Fungicidal activity against Alternaria solani at 50 ug/ml by growth inhibition method
Assay type: functional
Design: scale not given: the % may be the effect or the level left
Rule: Activity below 20% gives fulfilled, anything at or above gives not fulfilled.

# example entries with known answers
>  <molecule>
Cc1ccc(N(C(=O)c2snnc2C)C(C(=O)NC2CCCCC2)c2ccccc2)cc1F (centres undefined)

>  <classification>
fulfilled

$$$$
>  <molecule>
Cc1ccc(N(C(=O)c2snnc2C)C(C(=O)NC2CCCCC2)c2ccc(F)cc2)cc1Cl (centres undefined)

>  <classification>
not fulfilled

$$$$
>  <molecule>
Cc1ccc(N(C(=O)c2snnc2C)C(C(=O)NC2CCCCC2)c2cccc(Cl)c2)cc1F (centres undefined)

>  <classification>
not fulfilled

$$$$
>  <molecule>
Cc1ccc(N(C(=O)c2snnc2C)C(C(=O)NC2CCCCC2)c2ccccc2F)cc1F (centres undefined)

>  <classification>
not fulfilled

$$$$

Prompt: Activity strictly < 20% for this molecule? Cc1ccc(N(C(=O)c2snnc2C)C(C(=O)NC2CCCCC2)c2ccc(O)cc2)cc1F (centres undefined)
Response: fulfilled

Prompt: I wonder whether Cc1ccc(N(C(=O)c2snnc2C)C(C(=O)NC2CCCCC2)c2ccccc2C(F)(F)F)cc1Cl (centres undefined) has Activity below 20%. Can you tell?
Response: not fulfilled

Prompt: Consider the molecule Cc1ccc(N(C(=O)c2snnc2C)C(C(=O)NC2CCCCC2)c2ccc([N+](=O)[O-])cc2)cc1F (centres undefined) . Is its Activity strictly less than 20%?
Response: fulfilled

Prompt: State whether 20% exceeds Activity recorded for Cc1ccc(N(C(=O)c2snnc2C)C(C(=O)NC2CCCCC2)c2ccccc2[N+](=O)[O-])cc1Cl (centres undefined) .
Response: not fulfilled

Prompt: Is Activity of Cc1ccc(N(C(=O)c2snnc2C)C(C(=O)NC2CCCCC2)c2ccccc2Cl)cc1F (centres undefined) strictly below 20%?
Response: fulfilled

Prompt: Is it true that Activity reported for Cc1ccc(N(C(=O)c2snnc2C)C(C(=O)NC2CCCCC2)c2ccccc2[N+](=O)[O-])cc1F (centres undefined) is less than 20%?
Response: fulfilled

Prompt: Please indicate whether the reported Activity of Cc1ccc(N(C(=O)c2snnc2C)C(C(=O)NC2CCCCC2)c2cccc(F)c2)cc1F (centres undefined) is strictly below 20%.
Response: fulfilled

Prompt: Please check: Activity for Cc1ccc(N(C(=O)c2snnc2C)C(C(=O)NC2CCCCC2)c2cccc([N+](=O)[O-])c2)cc1Cl (centres undefined) , strictly under 20% or not?
Response: not fulfilled

---

Test system: Alternaria solani
Assay: Fungicidal activity against Alternaria solani at 50 ug/ml by growth inhibition method
Type: functional
Parameters: scale not given: the % may be the effect or the level left
Lab note: anything with Activity at or over 40% counts as 1; the rest go in -1.

Check out these entries, answers already filled in.
>  <compound>
Cc1ccc(N(C(=O)c2snnc2C)C(C(=O)NC2CCCCC2)c2cccc(O)c2)cc1Cl (configuration not stated)

>  <classification>
1

$$$$
>  <compound>
Cc1ccc(N(C(=O)c2snnc2C)C(C(=O)NC2CCCCC2)c2ccccc2)cc1Cl (configuration not stated)

>  <classification>
-1

$$$$
>  <compound>
Cc1cccc(C(C(=O)NC2CCCCC2)N(C(=O)c2snnc2C)c2ccc(C)c(F)c2)c1 (configuration not stated)

>  <classification>
-1

$$$$
>  <compound>
Cc1ccc(C(C(=O)NC2CCCCC2)N(C(=O)c2snnc2C)c2ccc(C)c(F)c2)cc1 (configuration not stated)

>  <classification>
-1

$$$$
>  <compound>
Cc1ccc(N(C(=O)c2snnc2C)C(C(=O)NC2CCCCC2)c2ccc(F)cc2)cc1F (configuration not stated)

>  <classification>
1

$$$$

Prompt: For this compound, is measured Activity 40% or higher? Cc1ccc(N(C(=O)c2snnc2C)C(C(=O)NC2CCCCC2)c2ccc(C(F)(F)F)cc2)cc1Cl (configuration not stated)
Response: -1

Prompt: Could you verify whether the entry Cc1ccc(N(C(=O)c2snnc2C)C(C(=O)NC2CCCCC2)c2ccccc2C)cc1Cl (configuration not stated) shows Activity of no less than 40%?
Response: 1
